# System: H. influenzae ATCC49247
# Assay info: MIC, microdilution broth method (NCCLS)
# Format: cell-based
# Condition context: E: H. influenzae ATCC49247, 35° C., 16-20 hours
Documented MIC across a set of compounds
Kindly provide the numeric value in µg/mL only, without the unit symbol.

CC[C@H]1OC(=O)[C@H](C)C(=O)[C@H](C)[C@@H](O[C@@H]2O[C@H](C)C[C@H](N(C)C)[C@H]2O)[C@](C)(OC(=O)NCc2ccc(-c3cccnn3)cc2)C[C@@H](C)C(=O)[C@H](C)[C@H]2NC(=O)O[C@@]21C 2

# ---- query compound ----
[ask] Please give the measured MIC for this compound: CC[C@H]1OC(=O)[C@H](C)C(=O)[C@H](C)[C@@H](O[C@@H]2O[C@H](C)C[C@H](N(C)C)[C@H]2O)[C@](C)(OC(=O)NC/C=C/c2ccc(-n3cccn3)cc2)C[C@@H](C)C(=O)[C@H](C)[C@H]2NC(=O)O[C@@]21C
[reply] 4

The measured values listed here are drawn from patent US6613747B2.
